Assay: Pharmacokinetics of TH302 in Beagle Dogs (Table 6)
Assay type: in vivo
Conditions: male, dog, plasma, intravenous, Males, 4 mg/kg
Value Kind: clearance (mL/min/kg)
Reply numerically in mL/min/kg, unit not repeated.

Prompt line: For the molecule Cn1c(COP(=O)(NCCBr)NCCBr)cnc1[N+](=O)[O-] [TH302] , report clearance.
Response line: 28.3

###

Test: Pharmacokinetics after repeated administration (Q7D×3) to dogs
Type: in vivo
Conditions: dog, in vivo; TH302 in dogs, 16 mg/kg Q7D×3, Day 15; read-out: Half-Life (converted)
Value Kind: half-life
Numeric answer plus unit only.

Prompt line: For the compound Cn1c(COP(=O)(NCCBr)NCCBr)cnc1[N+](=O)[O-] , report half-life.
Response line: 17 min
